# tested_system: ETS1 (UniProt P14921)
# Sequence: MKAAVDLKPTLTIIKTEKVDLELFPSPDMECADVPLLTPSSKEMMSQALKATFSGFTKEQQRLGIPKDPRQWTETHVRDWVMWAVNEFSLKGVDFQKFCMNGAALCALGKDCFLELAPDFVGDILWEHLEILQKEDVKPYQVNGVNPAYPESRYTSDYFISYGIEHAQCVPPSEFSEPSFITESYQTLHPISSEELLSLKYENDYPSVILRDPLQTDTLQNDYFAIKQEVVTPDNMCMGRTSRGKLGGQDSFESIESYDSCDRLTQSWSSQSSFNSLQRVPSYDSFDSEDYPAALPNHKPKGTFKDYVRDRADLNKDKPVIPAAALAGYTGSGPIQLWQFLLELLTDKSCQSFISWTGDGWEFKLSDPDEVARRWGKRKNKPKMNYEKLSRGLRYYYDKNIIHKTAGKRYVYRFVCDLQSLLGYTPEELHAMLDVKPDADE
# assay_notes: ETS1 binding intensity (PBM fluorescence) in presence of RUNX1, normalised to ETS1-only experiment (arbitrary fluorescence units); higher = stronger binding
# test_parameters: ETS1 concentration 1 nM; RUNX1 concentration 25 nM
Response key: yes (1) means ETS1 binding intensity >= 1000; no (0) means ETS1 binding intensity < 1000.

# ordered_residues, classification
measured = [
    ("GTGCCACTGAGAGGAAGGGGGCAACCACAGTGGGAG", "no (0)"),
    ("CTGAGCAAAAGGAGGAAGCTGTGGTCTGTGTACCCA", "yes (1)"),
    ("GCCCAATTCCCGAATCCGGTCTGCGGCGCGCTCGGG", "no (0)"),
    ("TTGAGGGGAAGGGGAGGAAGTGGTCATTGGAACTTG", "yes (1)"),
    ("GAGACAGGAAATGTAGACTTGAGTCCTGTGGTAAAC", "yes (1)"),
    ("TTGGCTTTGTGTTTCCGCGGTGTTGGTAGAGTCTCG", "no (0)"),
    ("CGGGGGCCAGGCTTCCTGTGGTGGGAGCGGCAGGCC", "no (0)"),
    ("TGGGGAGGCAGGAAACGGGCCTTGTGGTTGGGGGGT", "yes (1)"),
]

Determine whether measured ETS1 binding intensity meets or exceeds 1000 for GCGCAAGGATCCGGTTTGTTGTGGTGTGGGGAGGGG
no (0)

Please tell me: is the sequence CGAAGAGGAAGCCCCTGTATCACCCCACAAGAAGCC at or over 1000 in terms of ETS1 binding intensity?
no (0)

Does the sequence GTTAGAGGAAGAGGAAGCGGTCAAGAGATCGTCACA have recorded ETS1 binding intensity that is 1000 or more?
yes (1)

Is ETS1 binding intensity at least 1000? Consider GCCCACCCGCTTCCGGTTGTGGGCCCCGCCCGCCGA
yes (1)

Answer whether ETS1 binding intensity of GAGCAGTGGTGGGAAATGTGGGGTTGGGGGTAAAGG is greater than or equal to 1000.
no (0)

Is it the case that TGCCCAGTACTTCCTCTTGTGGGGGAGCACAACTTG has ETS1 binding intensity reaching or exceeding 1000?
no (0)

Could you please find out whether GGTGACACGGCCGGCTTCCTGCCGCAGAGCTCCTGG has ETS1 binding intensity that meets 1000 or exceeds it?
no (0)

Identify whether the reported ETS1 binding intensity of the following sequence is 1000 or greater: TGACATTTCCGGCCCCACCTCGGCCCGCAGCGCCGC
yes (1)

Test whether the sequence TTTCTTCCTGTTTGCATCACCCCAAACCCACTATCA records ETS1 binding intensity of 1000 or higher.
no (0)

// inclusive: ETS1 binding intensity at least 1000? input: AATCATTTCCTGCCCTAACGTTTGTGGTCTGCCTAG
yes (1)

Could you verify whether the entry AGACGGTAGGCCAGGAAACCGCAGGCCCCTGCCGGG shows ETS1 binding intensity of no less than 1000?
yes (1)

Kindly determine if ETS1 binding intensity recorded for CCTGCTGCTTCCGCCCGGAGTTGTTGTGGGCTCCAG is above or exactly 1000.
no (0)

Could you verify whether the entry GGGGCGCTGCGCAGGAAGCCGCAGTCCCTCTGCGGA shows ETS1 binding intensity of no less than 1000?
yes (1)

Record ATGGCGGAGCGGAAGTCCCAGCCACAACGCGAAAAG ; criterion: ETS1 binding intensity no lower than 1000. Met?
yes (1)

Hi team, for AAAGCAAAGTCAAGAGGATGTGGTGACCAATTCTGC , is the recorded ETS1 binding intensity at or above 1000?
yes (1)

----------
# tested_system: RUNX1 (UniProt Q01196)
# Sequence (Q01196 whole entry): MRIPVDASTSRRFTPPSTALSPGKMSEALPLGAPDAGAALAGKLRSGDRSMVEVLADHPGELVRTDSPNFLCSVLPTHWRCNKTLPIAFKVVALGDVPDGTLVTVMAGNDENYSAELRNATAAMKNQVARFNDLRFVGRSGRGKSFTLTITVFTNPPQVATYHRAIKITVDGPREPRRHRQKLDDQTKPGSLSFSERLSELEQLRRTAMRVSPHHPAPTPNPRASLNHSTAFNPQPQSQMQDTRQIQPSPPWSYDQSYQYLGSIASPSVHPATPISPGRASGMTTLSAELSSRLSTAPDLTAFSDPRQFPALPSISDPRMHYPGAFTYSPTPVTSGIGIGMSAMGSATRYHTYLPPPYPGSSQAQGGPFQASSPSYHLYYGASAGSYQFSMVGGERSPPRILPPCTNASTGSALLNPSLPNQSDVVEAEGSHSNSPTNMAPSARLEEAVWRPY
# assay_notes: RUNX1 binding intensity (PBM fluorescence) in presence of ETS1, normalised to RUNX1-only experiment (arbitrary fluorescence units); higher = stronger binding
# test_parameters: RUNX1 concentration 2 nM; ETS1 concentration 25 nM
Provide the recorded RUNX1 binding intensity for the entries that follow.

The cases that follow already have their RUNX1 binding intensity on record.
# ordered_residues, tested_system, RUNX1 binding intensity
rows = [
    ("GCAACAGCGATCCCCGGAAACCACAAGGCGAGATGT", "RUNX1 (UniProt Q01196)", 2790),
    ("AGGCCGTGCAGGAAATGAGACCCACAGCCACGTCAC", "RUNX1 (UniProt Q01196)", 977),
    ("GGATGAACAGGAAGCTAAAGTAAATACCACAGTGAC", "RUNX1 (UniProt Q01196)", 1190),
    ("GTTTAACAGGAAACCCTGCAGACCACAGGTTCTGTC", "RUNX1 (UniProt Q01196)", 1680),
    ("CTTCTGGCGGAAGCGGCACAAGCCGCAGTACAGCGC", "RUNX1 (UniProt Q01196)", 1190),
]

Field: RUNX1 binding intensity. Fill in for each record below.
1. TGCCGGGCCCCGGATGTCACCGCAGCCGCCATCTTA
2. GCGGAGCGAGCGGCCGGATGCGGTCACCATAGAGAC
3. CACCCTGCCACTTCCCTAAACTCCCCGCACAGGCCG
4. CAGAGCAGAGAGGAAGTGGTGGTGGCCACAGTCCCA
5. TGGGGAGGCAGGAAACGGGCCTTGTGGTTGGGGGGT
6. CTCACCCCTGGAGGATGTGGGTTTCCAGGCTGACAG
7. TGCGAGCACCCGGAAGCCGCTTGCGGGCTCCCGGAG

1. 1990
2. 8090
3. 2140
4. 1220
5. 1020
6. 1190
7. 999

Report RUNX1 binding intensity for each item below.
1. GTTGGGGTGCGTGTAGGATGTGGTCTGGGATGATTA
2. CTCTTCAGCAGGAAATGATGTGGTAAAACAGGGTTA
3. CCCATTTCCTGCTCTCCAGAGTTAACCACTGAAGTC
4. AACATCCGGTTCCCGGTTCTGCCCCCTACCGCAGCT

1. 867
2. 1390
3. 3490
4. 3920

Your task in this section: give RUNX1 binding intensity for each listed record.
1. GAGGAACCCAAAGTAGGATGTGGTTTTGCAATTGGA
2. GAAGGCGGTTCCGGTTCGCGGCGGTTCCCGGGTTTT
3. GCCGCTGCCTCTTCCTGTGTGGTTTTTCAGGGCTTA
4. GGTTCATTTCCTTTTCCTCCTTGTGGTATAAAAGAG
5. CTGTCTGCTTCCCGTGGCCAGCCCTGACCGCGGCCC

[1770, 1820, 2920, 2890, 1430]

Consider the following items and state reported RUNX1 binding intensity for each.
1. AGCGCCACACTTCCGCTTTGCGGCAGTGTGCGCCCC
2. CACCGACCGGAAGGGCCCCAAGGATCCCCGCAGCAG

1. 1890
2. 1380

----------
# tested_system: ETS1 (UniProt P14921)
# Sequence: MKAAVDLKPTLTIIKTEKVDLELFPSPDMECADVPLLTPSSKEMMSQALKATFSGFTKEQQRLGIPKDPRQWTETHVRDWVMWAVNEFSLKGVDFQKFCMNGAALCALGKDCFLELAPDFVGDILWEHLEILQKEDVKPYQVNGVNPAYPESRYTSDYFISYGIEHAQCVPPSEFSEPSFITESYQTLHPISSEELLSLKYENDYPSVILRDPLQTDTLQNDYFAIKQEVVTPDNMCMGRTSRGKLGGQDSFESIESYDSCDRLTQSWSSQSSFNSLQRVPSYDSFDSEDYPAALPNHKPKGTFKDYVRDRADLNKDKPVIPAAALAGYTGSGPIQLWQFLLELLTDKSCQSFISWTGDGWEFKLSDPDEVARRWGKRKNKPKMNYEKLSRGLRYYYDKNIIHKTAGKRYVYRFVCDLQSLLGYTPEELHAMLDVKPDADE
# assay_notes: ETS1 binding intensity (PBM fluorescence), ETS1 alone (arbitrary fluorescence units); higher = stronger binding
# test_parameters: ETS1 concentration 1 nM; RUNX1 concentration 0 nM
Exercise: for every item that follows, state its recorded ETS1 binding intensity.

Examples from the recorded data:
# ordered_residues, ETS1 binding intensity
measured = [
    ("AAAGAGAAAGGAAACAAAGTATAGCACCACAGTGAG", 475),
    ("TGTGAGAAGCCGGATCCTGTGGTGACCCAGTGGCCT", 409),
    ("ACAGGAAACTAAAATAAGAACAGAAAACCAAGACAG", 865),
    ("GAGGAGGAAAGCGGAAGCGCTGCCCGCAGTGGTAGG", 4260),
    ("TCAGAGACTTCCGCTCAGCAGCAGCTGCGGCCAGGC", 966),
    ("TGGATGGCGGCGGATACTGCCCATGCCGCAAGGCCG", 464),
    ("ATGGGTACAGGATTTCCTTTTGTGGTGATGAAAATG", 697),
]

--- query ---
According to the records, this sequence GTGAACTTCCTCCCCCACTGCCTATTTTTACCGCAG displays ETS1 binding intensity of 624

Attribution: the supplement of paper PMC10681739
